Data origin: patent US12077503B2

system: barnyardgrass (Echinochloa crus-galli); assay: Test B flooded paddy test; type: in vivo; conditions: Echinochloa crus-galli, 250 g ai/ha, Flood; 0 to 100 scale where 0 is no effect and 100 is complete control; read-out: Barnyardgrass plant response rating
pest or weed control at 250 g/ha for assorted compounds
Give a bare numeral; the unit % is implied.

Study these solved cases before continuing.
O=C1NC[C@H](c2ccc3c(c2)OCO3)[C@H]1C(=O)Nc1ccc(F)cc1F : 0
Cc1cc([C@H]2CN(C)C(=O)[C@@H]2C(=O)Nc2cccc(F)c2F)ccc1Br : 0
CN1C[C@H](c2ccc(C(F)F)cc2)[C@@H](C(=O)Nc2ccccc2S(C)(=O)=O)C1=O : 65
CCc1cc(CC)cc([C@H]2CNC(=O)[C@@H]2C(=O)Nc2ccccc2F)c1 : 60
CN1CC(c2cccc(/C=C/Cl)c2)C(C(=O)Nc2ccccc2F)C1=O (stereo not shown) : 20
CN1C[C@H](c2cc(C(F)F)cs2)[C@@H](C(=O)Nc2ccccc2S(C)(=O)=O)C1=O : 75

Read the next record carefully.
## Task If you can, please state the reported pest or weed control at 250 g/ha value of CC(C)Oc1ccc([C@H]2CNC(=O)[C@@H]2C(=O)Nc2ccccc2F)cc1 .
## Result 0
